# Test system: D54 LucT luciferase reporter counterscreen, luminescence, 24 h
# test description: reporter signal increase, D54 LucT cells – cell-based, luminescence, cherry pick, counter-screen for N-linked glycosylation inhibitor project, dose response (AID 624404)
Records with an inconclusive call do not appear.
# key: entry, value: AC35

Take a look at these entries with their results.
So for Cc1nc(N=C(N)N)nc2c(C)cccc12 , the logged AC35 turned out to be 3.82 µM

The compound identified as COc1ccc(C(=O)Nc2sc(C)c(C)c2CN2CC(C)OC(C)C2)cc1 (configuration not stated) registered its AC35 at 0.352 µM

Entry COc1ccc2c(c1)[C@H]1[C@H](CO2)[C@H](c2ccccc2)[C@]2(C)C(=O)Nc3ccc(Br)cc3C(=O)N12 — recorded AC35 = 0.233 µM

New cases:
# AC35 (compound: CC(=O)Nc1cccc(-c2ccnc3c2CC(C)(C(=O)NCC2CC2)O3)c1 (configuration not stated) ) is 11.5 µM

Looking up COCCCNC(=O)c1sc2ncn(CC(=O)Nc3ccc(C)c(Cl)c3)c(=O)c2c1C , I see its AC35 listed as 2.51 µM

// AC35 lookup, compound = COc1ccc2[nH]c(C(=O)N/N=C/c3ccccc3OC)cc2c1 , result: 1.17 µM

Just for reference, PubChem BioAssay AID624404 is where these values come from.
